- Target Or System: IP receptor (Homo sapiens)
- Construct: expressed in transfected cells; host or cells: CHO cells stably expressing the IP receptor (CHO-IP)
- Sequence (P43119 whole entry): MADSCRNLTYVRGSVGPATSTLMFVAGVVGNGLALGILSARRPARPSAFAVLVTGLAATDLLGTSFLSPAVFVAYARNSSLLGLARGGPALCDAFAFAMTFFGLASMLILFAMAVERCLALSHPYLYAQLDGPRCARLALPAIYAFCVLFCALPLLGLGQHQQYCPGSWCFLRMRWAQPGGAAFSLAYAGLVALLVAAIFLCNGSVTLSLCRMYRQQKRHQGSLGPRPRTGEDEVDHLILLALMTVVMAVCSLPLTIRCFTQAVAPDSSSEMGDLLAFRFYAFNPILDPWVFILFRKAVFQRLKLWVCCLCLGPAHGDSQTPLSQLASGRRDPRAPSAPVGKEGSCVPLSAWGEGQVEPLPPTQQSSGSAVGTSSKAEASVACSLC
- Assay Remarks: cAMP accumulation in CHO cells stably expressing the IP receptor (CHO-IP), PerkinElmer AlphaScreen assay
- Type: cell-based
- Recorded Conditions: 1 hour at room temperature, Table 1, read-out: EC50
Quantity: EC50 (pM)

Solved entries:
Compound	EC50, pM
O=C(O)CCCCCCN1CC[C@H](O)c2nc(-c3ccccc3)c(-c3ccccc3)nc21	8600
Cc1ccc(-c2nc3c(nc2-c2ccc(C)cc2)N(CCCCCCC(=O)O)C(=O)C(O)C3)cc1 (centres unmarked)	740
CC1CCc2cc(-c3ccccc3)c(-c3ccccc3)nc2N1CCCCCCC(=O)O (single isomer, unassigned) [Example 3.1]	36000

(a) Cc1ccc(-c2nc3c(nc2-c2ccc(C)c(F)c2)N(CCCCCCC(=O)O)CCC3)cc1F
(b) Cc1ccc(-c2nc3c(nc2-c2ccc(C)cc2)N(CCCCCCC(=O)O)C(C)CC3)cc1 (single isomer, unassigned) [Example 4.14]
Of a and b , whose reported EC50 is numerically smaller? Reply with the label of the item you choose.
b
